assay_target: TPP riboswitch RNA
procedure_text: Isothermal titration calorimetry (ITC) binding to TPP riboswitch RNA
cond: Table 1, SHAPE-detected fragment hits; ITC; read-out: Kd
measure_name: Kd (nM)
Supply the numeric figure in nM, leaving out any unit text.

Task: Name the reported Kd value associated with the compound Cc1ncc(C[n+]2csc(CCOP(=O)([O-])OP(=O)(O)O)c2C)c(N)n1 [Compound 9, thiamine pyrophosphate, reference compound]
Output: 28

###

assay_target: TPP riboswitch RNA
procedure_text: Isothermal titration calorimetry (ITC) binding to TPP riboswitch RNA
cond: Table 8, linked analogs; read-out: Kd
// values below are reported Kd
Supply the numeric figure in µM, leaving out any unit text.

// worked examples, Kd included
O=C(O)CCC(=O)Nc1ccc2nccnc2c1: 653
CN(C)CCN(C=O)Cc1ccc2nccnc2c1: 69.1
O=C(CCCC(=O)Nc1ccc2nccnc2c1)NO: 477
O=C(CNc1ccc2nccnc2c1)NO: 58.1

Task: Name the reported Kd value associated with the compound O=C(CNc1cnccc1N1CCNCC1)Nc1ccc2nccnc2c1
Output: 10.5

###

// values below are reported Kd
assay_target: TPP riboswitch RNA
procedure_text: Isothermal titration calorimetry (ITC) binding to TPP riboswitch RNA
cond: Table 4, fragment 5 analogs, pendant groups; ITC; read-out: Kd
Supply the numeric figure in µM, leaving out any unit text.

CCOc1ccc(C(=O)OC)cn1 [Compound S7]: 1800

Task: Identify the measured Kd of NS(=O)(=O)c1ccc(Cl)nc1 [Compound S16] for TPP riboswitch RNA.
Output: 1300

Task: Identify the measured Kd of OCc1ccc(Cl)nc1 [Compound S14] for TPP riboswitch RNA.
Output: 1300
